Examples of molecules with documented IC50 follow.
Target: human MetAP2 enzyme (Homo sapiens)
Test: MetAP2 enzyme assay, MetAP2 enzyme complexed with manganese ions
Settings: MetAP2 Mn pIC50, 10 μM MnCl2; -log(IC50), IC50 molar
The figure you give is taken to be in nM; do not add the unit.

Below: 3 molecules and their reported IC50.
molecule	assayed_target	endpoint_label	obs_value
Cc1nc(N2CC[C@H](O)C2)ccc1-n1c2ccc(F)cc2c2[nH]ncc21 [Example 27]	human MetAP2 enzyme (Homo sapiens)	IC50	3.98
Cc1ncccc1-n1c2ccc(F)cc2c2[nH]ncc21 [Example 61]	human MetAP2 enzyme (Homo sapiens)	IC50	12.6
Cc1nc(N2CC(C(N)=O)C2)ncc1-n1c2ccc(F)cc2c2[nH]ncc21 [Example 89]	human MetAP2 enzyme (Homo sapiens)	IC50	10

Kindly indicate its recorded IC50. Item: Cc1nc(N2CCC(O)CC2)ncc1-n1c2ccc(F)cc2c2[nH]ncc21 [Example 29]
7.94

Kindly indicate its recorded IC50. Item: Cc1nc2c(cc1-n1c3ccc(F)cc3c3[nH]ncc31)ncn2CCCO [Example 80]
31.6

Kindly indicate its recorded IC50. Item: Cc1cc2cnn(C)c2cc1-n1c2ccc(F)cc2c2[nH]ncc21 [Example 14]
7.94

Kindly indicate its recorded IC50. Item: Cc1c(-n2c3ccc(F)cc3c3[nH]ncc32)cnc2[nH]c(=O)[nH]c12 [Example 28]
5.01

Kindly indicate its recorded IC50. Item: Cc1cc(C(=O)N2CC[C@@H](O)C2)ncc1-n1c2ccc(F)cc2c2[nH]ncc21 [Example 109]
25.1

Kindly indicate its recorded IC50. Item: Cc1nc(N2CC[C@@H](C(N)=O)C2)ncc1-n1c2ccc(F)cc2c2[nH]ncc21 [Example 20]
6.31

----------
Biological target: human MetAP2 enzyme (Homo sapiens)
Test: MetAP2 enzyme assay, MetAP2 enzyme complexed with manganese ions
Details: MetAP2 Mn pIC50, 10 μM MnCl2; -log(IC50), IC50 molar
endpoint_label: IC50 (µM)
The figure you give is taken to be in µM; do not add the unit.

smiles_repr	assayed_target	IC50, µM
Cc1nc(C(=O)N2CC(C#N)C2)ccc1-n1c2ccc(F)cc2c2[nH]ncc21	human MetAP2 enzyme (Homo sapiens)	0.01

Kindly indicate its recorded IC50. Item: `COCCNC(=O)c1ccc(-n2c3ccc(F)cc3c3[nH]ncc32)c(C)n1`
0.0398

Kindly indicate its recorded IC50. Item: `Cc1nc(N2CCNCC2)ccc1-n1c2ccc(F)cc2c2[nH]ncc21`
0.0126

Kindly indicate its recorded IC50. Item: `Cc1nc2c(cc1-n1c3ccc(F)cc3c3[nH]ncc31)[nH]c(=O)n2CCCO`
0.00631

Kindly indicate its recorded IC50. Item: `CNC(=O)[C@@H]1CCCN1c1ncc(-n2c3ccc(F)cc3c3[nH]ncc32)c(C)n1`
0.00794

Kindly indicate its recorded IC50. Item: `CNc1cc(C)c(-n2c3ccc(F)cc3c3[nH]ncc32)cn1`
0.0126

Kindly indicate its recorded IC50. Item: `Cc1cc(C(=O)N2CC(N)C2)ncc1-n1c2ccc(F)cc2c2[nH]ncc21`
0.0126

Kindly indicate its recorded IC50. Item: `Cc1nc(N2CC(CO)C2)ncc1-n1c2ccc(F)cc2c2[nH]ncc21`
0.0126

Kindly indicate its recorded IC50. Item: `CN1CCN(c2cc(-n3c4ccc(F)cc4c4[nH]ncc43)ccn2)CC1`
0.00501

----------
Examples of compounds with documented pIC50 follow.
Target: human MetAP2 enzyme (Homo sapiens)
Experiment: MetAP2 enzyme assay, MetAP2 enzyme complexed with manganese ions
Conditions: MetAP2 Mn pIC50, 10 μM MnCl2; -log(IC50), IC50 molar
# log scale: pIC50 equals minus log10 of the concentration in mol/L

Below: 5 compounds and their reported pIC50.
compound	endpoint_label	obs_value
Cc1nc(N2C[C@H]3C[C@H]3[C@@H]2C(N)=O)ncc1-n1c2ccc(F)cc2c2[nH]ncc21 [Example 135]	pIC50	8.30
O=c1[nH]c(N2CC[C@@H](O)C2)ncc1-n1c2ccc(F)cc2c2[nH]ncc21 [Example 84]	pIC50	8.00
Cc1nc(N2CCC[C@@H](O)C2)ncc1-n1c2ccc(F)cc2c2[nH]ncc21 [Example 24]	pIC50	8.40
Cc1nc(N2CC(F)(F)C2)ncc1-n1c2ccc(F)cc2c2[nH]ncc21 [Example 43]	pIC50	7.90
Cc1nc2[nH]cnc2cc1-n1c2cc(Cl)ccc2c2[nH]ncc21 [Example 128]	pIC50	7.20

Kindly indicate its recorded pIC50. Item: Cc1nc2[nH]c(=O)n(CCO)c2cc1-n1c2ccc(F)cc2c2[nH]ncc21 [Example 32]
8.00

Kindly indicate its recorded pIC50. Item: Cc1nc(C(=O)N2CC(N)C2)ccc1-n1c2ccc(F)cc2c2[nH]ncc21 [Example 117]
8.10

----------
Examples of compounds with documented IC50 follow.
Biological target: UniProt:P50579
Assay: MetAP2 enzyme assay, MetAP2 enzyme complexed with cobalt ions
Conditions: MetAP2 Co pIC50, 10 μM CoCl2; -log(IC50), IC50 molar
The figure you give is taken to be in nM; do not add the unit.

Below: 4 compounds and their reported IC50.
smiles_repr	assayed_target	obs_value
O=C(c1ccc(Cn2c3ccc(F)cc3c3[nH]ncc32)cc1)N1CCOCC1	UniProt:P50579	31.6
Cc1nc(C(=O)NC[C@@H](C)O)ccc1-n1c2ccc(F)cc2c2[nH]ncc21	UniProt:P50579	7.94
Cc1cc(C(=O)NCCO)ncc1-n1c2ccc(F)cc2c2[nH]ncc21	UniProt:P50579	31.6
Fc1cc2c3[nH]ncc3n(Cc3ccccc3)c2cc1F	UniProt:P50579	100

Proceeding to the next compound to report its IC50.
Kindly indicate its recorded IC50. Item: `Cc1c(-n2c3ccc(F)cc3c3[nH]ncc32)ccc2ncnn12`
20

----------
Biological target: human MetAP2 enzyme (Homo sapiens)
Test: MetAP2 enzyme assay, MetAP2 enzyme complexed with cobalt ions
Settings: MetAP2 Co pIC50, 10 μM CoCl2; -log(IC50), IC50 molar
endpoint_label: pIC50
# log scale: pIC50 equals minus log10 of the concentration in mol/L

Below: 5 compounds and their reported pIC50.
compound	assayed_target	obs_value
COc1ccc(-n2c3ccc(F)cc3c3[nH]ncc32)c(C)n1 [Example 69]	human MetAP2 enzyme (Homo sapiens)	7.70
COCCNC(=O)c1cc(C)c(-n2c3ccc(F)cc3c3[nH]ncc32)cn1 [Example 105]	human MetAP2 enzyme (Homo sapiens)	7.30
Cc1nc(C(=O)NCCC#N)ccc1-n1c2ccc(F)cc2c2[nH]ncc21 [Example 122]	human MetAP2 enzyme (Homo sapiens)	8.10
Cc1nc(CCS(C)(=O)=O)ccc1-n1c2ccc(F)cc2c2[nH]ncc21 [Example 133]	human MetAP2 enzyme (Homo sapiens)	8.00
Cc1nc(N2CCC(O)CC2)ncc1-n1c2ccc(F)cc2c2[nH]ncc21 [Example 78]	human MetAP2 enzyme (Homo sapiens)	7.80

Kindly indicate its recorded pIC50. Item: Cc1nc2[nH]cnc2cc1-n1c2cc(F)c(F)cc2c2[nH]ncc21 [Example 130]
8.00

Kindly indicate its recorded pIC50. Item: Cc1nc(C(=O)N(C)CC#N)ccc1-n1c2ccc(F)cc2c2[nH]ncc21 [Example 121]
7.70

Kindly indicate its recorded pIC50. Item: Cc1nc(N2CCC[C@H]2C(N)=O)ncc1-n1c2ccc(F)cc2c2[nH]ncc21 [Example 72]
8.10

Kindly indicate its recorded pIC50. Item: Cc1nc(N2CC[C@H](O)C2)ncc1-n1c2ccc(F)cc2c2[nH]ncc21 [Example 55]
7.60

----------
Molecular target: human MetAP2 enzyme (Homo sapiens, UniProt P50579)
Sequence (P50579 whole entry): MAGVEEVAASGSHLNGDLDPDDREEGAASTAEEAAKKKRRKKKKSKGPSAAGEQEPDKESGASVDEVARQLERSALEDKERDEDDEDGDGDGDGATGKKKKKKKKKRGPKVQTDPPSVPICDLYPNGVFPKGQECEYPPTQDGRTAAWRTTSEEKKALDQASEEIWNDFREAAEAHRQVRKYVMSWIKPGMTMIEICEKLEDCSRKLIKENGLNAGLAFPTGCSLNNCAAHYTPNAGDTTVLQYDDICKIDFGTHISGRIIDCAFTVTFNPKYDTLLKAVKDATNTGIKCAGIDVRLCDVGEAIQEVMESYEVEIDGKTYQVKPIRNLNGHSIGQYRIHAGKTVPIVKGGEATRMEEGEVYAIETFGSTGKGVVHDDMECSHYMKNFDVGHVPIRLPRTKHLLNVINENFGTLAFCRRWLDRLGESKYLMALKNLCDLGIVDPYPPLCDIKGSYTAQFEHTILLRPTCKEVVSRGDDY
Experiment: MetAP2 enzyme assay, MetAP2 enzyme complexed with cobalt ions
Details: MetAP2 Co pIC50, 10 μM CoCl2; -log(IC50), IC50 molar
endpoint_label: IC50 (nM)
The figure you give is taken to be in nM; do not add the unit.

Below: 3 molecules and their reported IC50.
smiles_repr	assayed_target	unit_abbreviation	IC50
Cc1nc(N2CC[C@@H](N(C)C)C2)ncc1-n1c2ccc(F)cc2c2[nH]ncc21	human MetAP2 enzyme (Homo sapiens, UniProt P50579)	nM	39.8
Cc1nc(N2CC[C@H](O)C2)ccc1-n1c2ccc(F)cc2c2[nH]ncc21	human MetAP2 enzyme (Homo sapiens, UniProt P50579)	nM	6.31
Cc1c(-n2c3ccc(F)cc3c3[nH]ncc32)ccc2[nH]ncc12	human MetAP2 enzyme (Homo sapiens, UniProt P50579)	nM	12.6

Proceeding to the next molecule to report its IC50.
Kindly indicate its recorded IC50. Item: `Cc1nc(N2CC[C@H](F)C2)ncc1-n1c2ccc(F)cc2c2[nH]ncc21`
63.1

----------
Examples of compounds with documented IC50 follow.
Target: human MetAP2 enzyme (Homo sapiens)
Assay: MetAP2 enzyme assay, MetAP2 enzyme complexed with cobalt ions
Conditions: MetAP2 Co pIC50, 10 μM CoCl2; -log(IC50), IC50 molar
The figure you give is taken to be in nM; do not add the unit.

Report its IC50 with human MetAP2 enzyme (Homo sapiens) as the test system: O=C(NCCO)c1ccc(Cn2c3ccc(F)cc3c3[nH]ncc32)cc1 [Example 54]
31.6

Report its IC50 with human MetAP2 enzyme (Homo sapiens) as the test system: Cc1nc(N2CCOCC2)ccc1-n1c2ccc(F)cc2c2[nH]ncc21 [Example 66]
10
